B1: MLL5 (parent)
chain: DCMGIDRQHIPDTYLCERCQPRNL

# Variants of: B1
# method-notes: protein stability index of a GFP-peptide fusion (GPS, HEK-293T) (PSI 1-6); higher = more stable;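 further: lentivirally expressed fusions sorted by FACS into six bins by GFP to DsRed ratio, PSI derived from sequencing read proportions per bin multiplied by bin number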
# assay-conditions: c terminus: a fixed tail appended
Please go through the items and note down their protein stability index.
One number for each entry.

Sample answers from the record:
INSERT INTO results (mutant_code, recorded_number) VALUES
  ('Q20Y', 2.94),
  ('L24H', 2.91);

// for each variant in input: emit protein stability index
1. L15Q
2. L15M
3. R22N

Reply:
2.99
2.95
2.94
